// reported EC50 for each item listed
- System: Botrytis cinerea
- assay protocol: Fungicidal activity against benzimidazole-resistant Botryotinia fuckeliana after 48 hr by poisoned food technique
- Type: functional, organism-based
- measurement setup: Botrytis cinerea, 48 h; read-out: pEC50 (converted)
measure name: EC50 (nM)

>>> reported("CCO/N=C/Nc1cc(Cl)c(OCC(C)C)c(Cl)c1")
16200
>>> reported("CCO/N=C/Nc1cc(Cl)c(OCC#N)c(Cl)c1")
174
>>> reported("CCCCc1c(Cl)cc(N/C=N/OCC)cc1Cl")
1740
>>> reported("C#CCc1c(Cl)cc(N/C=N/Oc2ccccc2)cc1Cl")
295
>>> reported("CCO/N=C/Nc1cc(Cl)c(F)c(Cl)c1")
794
>>> reported("C#CCc1c(Cl)cc(N/C=N/OC/C=C\\Cl)cc1Cl")
60.3
>>> reported("C#CCc1c(Cl)cc(N/C=N/OC/C=C/Cl)cc1Cl")
302
>>> reported("CCO/N=C/Nc1cc(Cl)c(OC)c(Cl)c1")
191
>>> reported("C#CCc1c(Cl)cc(N/C=N/OC(C)C)cc1Cl")
33.1
>>> reported("CCO/N=C/Nc1cc(Cl)c(SCC)c(Cl)c1")
170
>>> reported("C#CCc1c(Cl)cc(N/C=N/OC(C)CC)cc1Cl (stereo not drawn)")
158
>>> reported("CCO/N=C/Nc1cc(Cl)c(OCOC)c(Cl)c1")
174
>>> reported("C=CCOc1c(Cl)cc(N/C=N/OCC)cc1Cl")
34.7
>>> reported("C#CCc1c(Cl)cc(N/C=N/OCC(=O)OCC)cc1Cl")
1450
>>> reported("C#CCc1c(Cl)cc(N/C=N/OCOC)cc1Cl")
33.1
>>> reported("C#CCc1c(Cl)cc(N/C=N/OCCC)cc1Cl")
33.1
>>> reported("CCO/N=C/Nc1cc(Cl)c(SSCC)c(Cl)c1")
617
>>> reported("C#CCc1c(Cl)cc(N/C=N/OCCOCC)cc1Cl")
60.3
>>> reported("C#CCc1c(Cl)cc(N/C=N/OCOCC)cc1Cl")
63.1
>>> reported("C#CCO/N=C/Nc1cc(Cl)c(CC#C)c(Cl)c1")
33.9
>>> reported("CCCOc1c(Cl)cc(N/C=N/OCC)cc1Cl")
174
>>> reported("C#CCc1c(Cl)cc(N/C=N/OCSC)cc1Cl")
31.6
>>> reported("C#CCc1c(Cl)cc(N/C=N/OCC=C)cc1Cl")
67.6

====

- System: Phaseolus vulgaris
- assay protocol: Phytotoxicity against Phaseolus vulgaris (kidney bean) assessed as necrosis of leaf at 100 ppm after 7 days in greenhouse conditions
- Assay type: organism-based
- measurement setup: in vivo, 168 h
measure name: Activity

>>> reported("CCCCc1c(Cl)cc(N/C=N/OCC)cc1Cl")
"Non-toxic"
>>> reported("CCO/N=C/Nc1cc(Cl)c([S+]([O-])CC)c(Cl)c1 (configuration not stated)")
"Non-toxic"
>>> reported("C#CCc1c(Cl)cc(N/C=N/OCSC)cc1Cl")
"Non-toxic"
>>> reported("CCO/N=C/Nc1cc(Cl)c(S(=O)(=O)CC)c(Cl)c1")
"<= 10%"
>>> reported("CCO/N=C/Nc1cc(Cl)c(Cl)cc1Cl")
"Non-toxic"
>>> reported("CCO/N=C/Nc1c(Cl)cc(Cl)cc1Cl")
"11%"
>>> reported("CCO/N=C/Nc1ccc(C)c(Cl)c1")
"<= 10%"
>>> reported("CCCOc1c(Cl)cc(N/C=N/OCC)cc1Cl")
"Non-toxic"
>>> reported("CCO/N=C/Nc1ccc(Cl)cc1C")
"11%"
>>> reported("CCO/N=C/Nc1cc(Cl)c(OCC(C)C)c(Cl)c1")
"<= 10%"
>>> reported("CCO/N=C/Nc1ccc(Cl)c(Cl)c1")
"11%"
>>> reported("CCO/N=C/Nc1ccccc1Cl")
"<= 10%"
>>> reported("C#CCc1c(Cl)cc(N/C=N/O)cc1Cl")
"Non-toxic"
>>> reported("CCO/N=C/Nc1cc(Cl)c(C)c(Cl)c1")
"Non-toxic"
>>> reported("CCO/N=C/Nc1cc(Cl)c(OCC)c(OCC)c1")
"Non-toxic"
>>> reported("CCO/N=C/Nc1cc(Cl)c(OC(C)C)c(Cl)c1")
"<= 10%"
>>> reported("C#CCOc1c(Cl)cc(NC=NOCC)cc1Cl")
"Non-toxic"
>>> reported("CCO/N=C/Nc1cc(OCC)c(OCC)c(OCC)c1")
"Non-toxic"
>>> reported("CCO/N=C/Nc1c(Cl)cccc1Cl")
"> 31%"
>>> reported("C#CCc1c(Cl)cc(N/C=N/OC/C=C\\Cl)cc1Cl")
"Non-toxic"
>>> reported("CCO/N=C/Nc1ccccc1")
"Non-toxic"
>>> reported("CCO/N=C/Nc1c(C)cccc1C")
"11%"
>>> reported("C#CCO/N=C/Nc1cc(Cl)c(CC#C)c(Cl)c1")
"Non-toxic"
>>> reported("CCO/N=C/Nc1ccc(CC)cc1")
"Non-toxic"
>>> reported("CCO/N=C/Nc1cccc(CC)c1")
"Non-toxic"
>>> reported("C#CCc1c(Cl)cc(N/C=N/OCOC)cc1Cl")
"Non-toxic"
>>> reported("CC#CCOc1c(Cl)cc(N/C=N/OCC)cc1Cl")
"Non-toxic"
